# Tested on: Fa2N-4 hepatocyte viability, ATP luminescence, 24 h
# protocol summary: Fa2N-4 hepatocyte viability loss – Fa2N-4 cells, cytotoxicity control for GPR30 and estrogen receptor ligands, late-stage follow-up (AID 623928)
The source made the active and inactive calls.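 Rule for the calls: active = liver cell toxicity, with the dose killing half the cells under 10 micromolar; inactive = the rest.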
readout: LC50

Field request: LC50 | item: CC(=O)c1ccc2c(c1)[C@@H]1C=CC[C@@H]1[C@H](c1cc3c(cc1Br)OCO3)N2
> 50 µM (inactive)
